molecular target: H3 receptors (Cavia porcellus); experiment: Competitive binding, displacement of [3H]α-methylhistamine, PDSP; design: species or system guinea pig
Sequence (Q9JI35 whole entry): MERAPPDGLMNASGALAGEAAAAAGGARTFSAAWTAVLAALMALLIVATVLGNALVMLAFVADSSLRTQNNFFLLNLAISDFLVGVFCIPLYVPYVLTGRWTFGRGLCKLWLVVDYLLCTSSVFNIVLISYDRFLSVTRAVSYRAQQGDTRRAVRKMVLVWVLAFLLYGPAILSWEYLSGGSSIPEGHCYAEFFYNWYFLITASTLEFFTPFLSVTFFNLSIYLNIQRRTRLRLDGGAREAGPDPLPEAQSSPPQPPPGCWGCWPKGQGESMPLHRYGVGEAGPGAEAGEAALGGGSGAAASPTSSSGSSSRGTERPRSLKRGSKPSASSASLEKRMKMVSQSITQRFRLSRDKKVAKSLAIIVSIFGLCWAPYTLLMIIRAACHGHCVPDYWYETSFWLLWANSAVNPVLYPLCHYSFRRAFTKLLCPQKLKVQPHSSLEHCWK
Measurement Type: Ki

Prompt: Request the reported Ki associated with C[C@@H]1CCCN1CCc1cc2cc(C(=O)c3ccc(F)cc3)ccc2o1
Completion: 4.2 nM

----------
target: H2R (Homo sapiens, UniProt P25021); test: Competitive binding, displacement of [3H]tiotidine, PDSP; details: human recombinant receptors expressed in HEK293T cells, read-out: Affinity (Ki, nM) H2
Sequence (P25021 whole entry): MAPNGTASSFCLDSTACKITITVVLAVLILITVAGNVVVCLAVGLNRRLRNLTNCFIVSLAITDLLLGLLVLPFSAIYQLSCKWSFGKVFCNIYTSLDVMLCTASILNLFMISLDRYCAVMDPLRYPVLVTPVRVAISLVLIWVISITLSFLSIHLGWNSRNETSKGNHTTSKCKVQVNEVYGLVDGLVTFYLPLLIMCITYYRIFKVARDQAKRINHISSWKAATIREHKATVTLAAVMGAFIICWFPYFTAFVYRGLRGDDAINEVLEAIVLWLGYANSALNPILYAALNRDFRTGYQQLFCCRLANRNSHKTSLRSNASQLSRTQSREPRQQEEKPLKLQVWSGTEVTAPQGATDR
Answer each item with its documented Ki.
The answer consists of two parts: a number and, after it, its unit.

Worked cases, Ki given:
[
  {
    "Structure Smiles String": "C[C@@H]1CCCN1CCc1cc2cc(C(=O)c3ccc([N+](=O)[O-])cc3)ccc2o1",
    "Ki": "706 nM"
  },
  {
    "Structure Smiles String": "C[C@@H]1CCCN1CCc1cc2cc(C(=O)c3cc(F)cc(F)c3)ccc2o1",
    "Ki": "630 nM"
  },
  {
    "Structure Smiles String": "C[C@@H]1CCCN1CCc1cc2cc(C(=O)c3ccc(F)cc3)ccc2o1",
    "Ki": "923 nM"
  }
]

Prompt: Test system H2R (Homo sapiens, UniProt P25021); read-out Ki; what value for C[C@@H]1CCCN1CCc1cc2cc(C(=O)c3cccc(F)c3)ccc2o1 ?
Completion: 1370 nM

----------
biological target: UniProtKB P35367; experiment: Competitive binding, displacement of [3H]pyrilamine, PDSP; conditions: human recombinant receptors expressed in HEK293T cells, read-out: Affinity (Ki, nM) H1
Sequence (P35367 whole entry): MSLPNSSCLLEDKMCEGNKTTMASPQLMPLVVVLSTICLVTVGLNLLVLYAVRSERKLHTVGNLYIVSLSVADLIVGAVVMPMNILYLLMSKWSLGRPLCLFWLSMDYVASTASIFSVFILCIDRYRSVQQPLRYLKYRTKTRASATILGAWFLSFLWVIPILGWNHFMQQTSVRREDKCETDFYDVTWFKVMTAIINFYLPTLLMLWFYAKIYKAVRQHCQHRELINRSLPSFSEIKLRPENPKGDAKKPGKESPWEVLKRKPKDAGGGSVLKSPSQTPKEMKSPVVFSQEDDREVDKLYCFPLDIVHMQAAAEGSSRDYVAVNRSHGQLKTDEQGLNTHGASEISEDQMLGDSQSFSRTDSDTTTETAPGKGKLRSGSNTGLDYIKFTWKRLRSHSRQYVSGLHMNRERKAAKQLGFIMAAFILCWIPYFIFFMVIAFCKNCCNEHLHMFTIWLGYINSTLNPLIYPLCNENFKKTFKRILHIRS
Measurement Type: Ki (nM)
One number for each entry, in nM.

[
  {
    "Compound": "C[C@@H]1CCCN1CCc1cc2cc(C(=O)c3ccc([N+](=O)[O-])cc3)ccc2o1 [Ligand 1]",
    "Tested On": "UniProtKB P35367",
    "Ki / nM": 1030
  }
]

Prompt: Recorded Ki of C[C@@H]1CCCN1CCc1cc2cc(C(=O)c3ccc(F)cc3)ccc2o1 [Ligand 2] , please.
Completion: 7050

----------
target: H3 receptors (Cavia porcellus); assay: Competitive binding, displacement of [3H]α-methylhistamine, PDSP; design: species or system guinea pig; conditions: [3H]α-methylhistamine; guinea pig cells expressing H3 receptors; NIMH PDSP; read-out: Affinity (Ki, nM) H3
Measurement Type: Ki (nM)
One number for each entry, in nM.

Some compounds with known Ki results, for comparison:
[
  {
    "Structure Smiles String": "C[C@@H]1CCCN1CCc1cc2cc(C(=O)c3cc(F)cc(F)c3)ccc2o1",
    "Tested On": "H3 receptors (Cavia porcellus)",
    "Quantity Unit": "nM",
    "Ki": 2.9
  },
  {
    "Structure Smiles String": "C[C@@H]1CCCN1CCc1cc2cc(C(=O)c3ccc([N+](=O)[O-])cc3)ccc2o1",
    "Tested On": "H3 receptors (Cavia porcellus)",
    "Quantity Unit": "nM",
    "Ki": 2.1
  }
]

// moving on: another record for Ki
Prompt: Using the record for C[C@@H]1CCCN1CCc1cc2cc(C(=O)c3cccc(F)c3)ccc2o1 , report its Ki.
Completion: 4.9
